Molecular target: UniProtKB P00742
Sequence (P00742 41-179 limits assumed): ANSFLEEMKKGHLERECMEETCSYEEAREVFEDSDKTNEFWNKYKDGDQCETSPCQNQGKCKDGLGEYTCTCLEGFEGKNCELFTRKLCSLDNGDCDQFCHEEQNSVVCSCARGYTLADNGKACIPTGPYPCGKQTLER
Sequence (P00742 235-488 limits assumed): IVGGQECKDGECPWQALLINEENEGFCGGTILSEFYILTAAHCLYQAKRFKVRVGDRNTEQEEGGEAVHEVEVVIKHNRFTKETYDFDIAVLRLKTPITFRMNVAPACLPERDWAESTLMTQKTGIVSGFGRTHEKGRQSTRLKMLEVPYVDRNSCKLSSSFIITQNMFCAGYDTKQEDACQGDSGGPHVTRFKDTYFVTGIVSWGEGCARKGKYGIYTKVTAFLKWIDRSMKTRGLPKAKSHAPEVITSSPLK
pKi: −log10 of the molar value.
Label 1 for high-side pKi (at or above 6) and 0 for low-side pKi (below it).

Take a look at these entries with their results.
# entrySmiles, discreteLabel
records = [
    ("CSC(=O)c1cc2c(O)cccc2n1Cc1cccc(C(=N)N)c1", 0),
    ("COC(=O)c1c(C(=O)OC)n(Cc2cccc(C(=N)N)c2)c2ccccc12", 0),
    ("CN1CCC([C@@H](NC(=O)c2cc3ccccc3n2Cc2cccc(C(=N)N)c2)c2ccc3cc(Cl)ccc3c2)CC1", 1),
    ("N=C(N)c1cccc(Cn2c(C(=O)NCc3cccc(I)c3)cc3c(O)cccc32)c1", 1),
]

Now consider the entry below.
Task item: Does C[N+](C)(C)c1ccc(CNC(=O)c2cc3cc(Br)ccc3n2Cc2cccc(C(=N)N)c2)cc1 have a reported pKi of at least 6?
Reply: 1

Data provenance: ChEMBL document CHEMBL1135480
